Target: P2Y purinoceptor 12 (Homo sapiens, UniProt Q9H244)
Sequence (Q9H244 whole entry): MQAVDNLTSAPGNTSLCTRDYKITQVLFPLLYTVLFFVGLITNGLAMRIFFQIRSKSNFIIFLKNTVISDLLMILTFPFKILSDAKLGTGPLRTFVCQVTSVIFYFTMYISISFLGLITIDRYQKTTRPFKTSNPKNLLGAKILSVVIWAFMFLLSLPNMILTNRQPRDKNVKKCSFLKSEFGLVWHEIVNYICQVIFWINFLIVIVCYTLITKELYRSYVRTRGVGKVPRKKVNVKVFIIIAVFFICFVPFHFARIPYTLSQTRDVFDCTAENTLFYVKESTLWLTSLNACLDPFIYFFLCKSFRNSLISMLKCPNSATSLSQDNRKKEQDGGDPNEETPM
Assay: Ability to displace [3H]2-MeS-ADP from human Purinergic receptor P2Y12
Type: tissue-based
propertyLabel: IC50

The following compounds have reported results that may help.
[[record]]
smilesentry = "O=C1/C(=C(\\O)CS(=O)(=O)Nc2nc3ccc(Oc4ccccc4)cc3s2)S(=O)(=O)N=C2Sc3cc(Oc4ccccc4)ccc3N12"
targetofassay = "P2Y purinoceptor 12 (Homo sapiens, UniProt Q9H244)"
endpointvalue = "> 50 µM"

[[record]]
smilesentry = "O=C1/C(=C(\\O)CS(=O)(=O)Nc2nc3ccc(C4CCCCC4)cc3s2)S(=O)(=O)N=C2Sc3cc(C4CCCCC4)ccc3N12"
targetofassay = "P2Y purinoceptor 12 (Homo sapiens, UniProt Q9H244)"
endpointvalue = "> 120 µM"

[[record]]
smilesentry = "O=S1(=O)C=C(O)N2C(=N1)Sc1cc(OC(F)(F)F)ccc12"
targetofassay = "P2Y purinoceptor 12 (Homo sapiens, UniProt Q9H244)"
endpointvalue = "> 120 µM"


--- query ---
What does the data say about its IC50? Entry: `O=C1/C(=C(\O)CS(=O)(=O)Nc2nc3ccc(-c4ccccc4)cc3s2)S(=O)(=O)N=C2Sc3cc(-c4ccccc4)ccc3N12`
> 50 µM

Just for reference, ChEMBL document CHEMBL1134134 is where these values come from.
